Some binders, each annotated with its measured kon.
target: Dsg3-Fc recombinant fusion protein (Homo sapiens, UniProt P32926); experiment: SPR
Sequence (P32926 50-615): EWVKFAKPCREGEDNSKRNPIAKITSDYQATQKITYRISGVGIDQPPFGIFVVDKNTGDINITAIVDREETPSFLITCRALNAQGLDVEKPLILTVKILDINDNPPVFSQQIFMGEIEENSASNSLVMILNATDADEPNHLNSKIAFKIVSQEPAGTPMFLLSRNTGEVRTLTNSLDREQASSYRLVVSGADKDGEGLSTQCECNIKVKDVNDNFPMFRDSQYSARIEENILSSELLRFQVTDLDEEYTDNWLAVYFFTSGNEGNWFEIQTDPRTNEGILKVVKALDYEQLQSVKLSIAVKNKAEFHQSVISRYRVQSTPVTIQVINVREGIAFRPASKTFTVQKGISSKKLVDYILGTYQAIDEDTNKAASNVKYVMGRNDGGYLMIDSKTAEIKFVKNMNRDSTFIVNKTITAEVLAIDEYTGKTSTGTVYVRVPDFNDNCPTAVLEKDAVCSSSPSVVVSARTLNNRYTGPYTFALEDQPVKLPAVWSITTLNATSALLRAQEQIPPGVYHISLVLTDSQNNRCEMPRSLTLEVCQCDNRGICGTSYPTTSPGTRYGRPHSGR
READOUT_TYPE: kon (M⁻¹ s⁻¹)

{"BINDER": "3.2 scFv mAb, somatically mutated (scFv, V domains shown) VH: QVQLVQSGAEVKKPGASVKVSCKASGYTFTSYYMHWVRQAPGHGLEWMGIINPSGGIANYAQKFQGRVTMTRDTSTSTVYMDLSSLTSEDTAVYYCARDLGGFDFDYWGQGTLVTVSS VL: ELALTQPPSVSGSPGQSVTISCTGTSSDIGRYNFVSWYQQHPGKAPKLMIYEIYKRPSGVPDRFSGSRSGNTASLTVSGLQAEDEADYYCSSYVGNNDLVFGGGTQLTVL", "READOUT_TYPE": "kon", "MEASURED_NUMBER": "1.62e+06"}
{"BINDER": "4.2 scFv mAb, somatically mutated (scFv, V domains shown) VH: EVQLVQSGAEVKKPGASLKVSCQASGYIFTSHYIHWVRQAPGQGLEWMGIINPSGGKTTFAQKFQGRVTMTRDTSTRTVYMEMSGLRSEDTAVYYCARDQSLGMDVWGQGTTVIVSS VL: ELALTQPPSVSGSPGQSITISCTGTSSDVGGYNYVSWYQQHPGKAPKLMIYEVSKRPSGVSNRFSGSKSGNTASLTISGLQAEDEADYYCSSYAGSNNWVFGGGTKLTVL", "READOUT_TYPE": "kon", "MEASURED_NUMBER": "3.91e+06"}
{"BINDER": "F779 scFv, somatically mutated (scFv, V domains shown) VH: QVQLVQSGADVKKPGASVKVSCTASGNTFTTYSLHWVRQAPGQGLEWMGVIDPSGGSTSYAQKFQGRLTMTRDTSTSTFYMELSSLRSEDTAVYYCARSIESISGRTLGYWGQGTLVTVSS VL: DIVMTQTPLSSPVTLGQPASISCRSSETLVHSDGNTYLSWLQQRPGQPPRLLIYKISNRFSGVPDRFSGSGAGTDFTLKISRVEAEDVGVYYCLQATEFPYTFGQGTKLEIK", "READOUT_TYPE": "kon", "MEASURED_NUMBER": 310000}
{"BINDER": "PVE4-8 scFv mAb, somatically mutated (scFv, V domains shown) VH: QVQLVQSWAEVKKPGASVKFSCKASGYTFTAYYMHWVRQAPGQGLEWMGIINPSGGIATYAEKFQGRVTMTRDTSTTTVYMELSSLRSQDAAVYYCARDRQGFDLDVWGQGTTVTVSS VL: ELVLTQPPSASGSPGQSVTISCTGTSSDVGGYNYVSWYQQHPGKAPKLMIYEVNKRPSGVPDRFSGSRSGNTASLTVSGLQAEDEADYYCSSYAGSNNLVFGGGTKVTVL", "READOUT_TYPE": "kon", "MEASURED_NUMBER": 515000}
